TARGET OR TEST SYSTEM: UniProt O76083
Sequence (O76083 whole entry): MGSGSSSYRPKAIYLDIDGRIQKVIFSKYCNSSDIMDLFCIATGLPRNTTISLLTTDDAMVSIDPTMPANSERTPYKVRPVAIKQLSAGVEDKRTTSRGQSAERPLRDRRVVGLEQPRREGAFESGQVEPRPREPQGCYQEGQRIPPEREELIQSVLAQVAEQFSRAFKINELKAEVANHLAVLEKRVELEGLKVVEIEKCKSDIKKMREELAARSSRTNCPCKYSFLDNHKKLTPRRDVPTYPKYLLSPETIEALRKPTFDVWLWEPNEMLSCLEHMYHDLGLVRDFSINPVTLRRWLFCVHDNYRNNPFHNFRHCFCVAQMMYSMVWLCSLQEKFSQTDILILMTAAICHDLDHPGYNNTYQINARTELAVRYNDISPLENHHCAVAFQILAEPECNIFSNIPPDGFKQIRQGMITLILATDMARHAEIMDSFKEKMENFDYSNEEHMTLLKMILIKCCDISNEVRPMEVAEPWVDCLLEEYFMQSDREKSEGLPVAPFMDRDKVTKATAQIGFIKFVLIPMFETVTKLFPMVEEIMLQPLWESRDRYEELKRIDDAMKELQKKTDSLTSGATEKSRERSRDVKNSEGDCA
READOUT KIND: IC50

MOLECULE	RESULT
CCOc1cc(C)nc(N(CCOC)S(=O)(=O)c2ccc(NCc3c(F)cncc3F)nc2OC)n1 [Compound 1]	> 200 µM

---

TARGET OR TEST SYSTEM: human GPR61 N137A (Homo sapiens, UniProt Q9BZJ8, N137A)
Construct: expressed in transfected cells; host or cells: CHO-K1, transient (Fugene6)
Sequence (Q9BZJ8 whole entry N137A): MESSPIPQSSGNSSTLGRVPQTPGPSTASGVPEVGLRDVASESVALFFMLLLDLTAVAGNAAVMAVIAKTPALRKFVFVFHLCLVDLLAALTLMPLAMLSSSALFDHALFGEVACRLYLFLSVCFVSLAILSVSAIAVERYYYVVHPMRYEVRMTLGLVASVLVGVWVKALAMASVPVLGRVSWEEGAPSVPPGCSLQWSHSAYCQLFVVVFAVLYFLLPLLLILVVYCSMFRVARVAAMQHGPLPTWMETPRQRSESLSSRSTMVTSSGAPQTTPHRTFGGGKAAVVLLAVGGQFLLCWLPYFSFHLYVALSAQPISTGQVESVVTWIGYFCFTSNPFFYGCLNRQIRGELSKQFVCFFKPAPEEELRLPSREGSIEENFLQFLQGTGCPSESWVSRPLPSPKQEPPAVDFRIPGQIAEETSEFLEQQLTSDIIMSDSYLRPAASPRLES
RUN DESCRIPTION: Functional cAMP assay (HTRF), transiently transfected CHO-K1 cells, GPR61 N137A mutant
Assay type: cell-based
EXPERIMENTAL PARAMETERS: Fig. 3e table, untagged; read-out: GPR61 cAMP IC50 (95% CI), N137A Untagged
pIC50: −log10 of the molar value.

CHEMICAL STRING	pIC50
CCOc1cc(C)nc(N(CCOC)S(=O)(=O)c2ccc(NCc3c(F)cncc3F)nc2OC)n1	5.76

---

TARGET OR TEST SYSTEM: UniProt:Q9Y233
Sequence (Q9Y233 1-779 isoform Q9Y233-1): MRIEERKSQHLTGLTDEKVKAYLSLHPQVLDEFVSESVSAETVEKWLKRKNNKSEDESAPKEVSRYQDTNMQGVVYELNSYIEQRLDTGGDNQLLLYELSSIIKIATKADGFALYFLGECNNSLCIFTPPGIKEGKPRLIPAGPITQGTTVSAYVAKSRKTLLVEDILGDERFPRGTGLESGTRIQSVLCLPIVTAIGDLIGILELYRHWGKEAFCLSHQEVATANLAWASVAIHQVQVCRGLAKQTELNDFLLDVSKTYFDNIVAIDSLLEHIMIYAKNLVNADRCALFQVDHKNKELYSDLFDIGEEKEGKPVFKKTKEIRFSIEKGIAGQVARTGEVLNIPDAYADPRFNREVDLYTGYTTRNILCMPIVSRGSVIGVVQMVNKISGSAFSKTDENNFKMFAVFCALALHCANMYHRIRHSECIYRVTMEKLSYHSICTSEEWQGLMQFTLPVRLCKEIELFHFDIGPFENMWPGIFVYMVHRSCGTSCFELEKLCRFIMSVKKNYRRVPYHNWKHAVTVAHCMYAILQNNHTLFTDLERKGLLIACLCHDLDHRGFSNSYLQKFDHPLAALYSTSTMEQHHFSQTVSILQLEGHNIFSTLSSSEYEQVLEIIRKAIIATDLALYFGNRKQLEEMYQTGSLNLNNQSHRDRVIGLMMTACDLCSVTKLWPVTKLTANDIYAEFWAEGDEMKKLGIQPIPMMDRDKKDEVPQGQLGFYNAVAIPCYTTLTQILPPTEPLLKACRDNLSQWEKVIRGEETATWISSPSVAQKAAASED

COMPOUND	TARGET OR TEST SYSTEM	IC50
CCOc1cc(C)nc(N(CCOC)S(=O)(=O)c2ccc(NCc3c(F)cncc3F)nc2OC)n1 [Compound 1]	UniProt:Q9Y233	> 40 µM

---

TARGET OR TEST SYSTEM: UniProt:Q14524
Sequence (Q14524 whole entry): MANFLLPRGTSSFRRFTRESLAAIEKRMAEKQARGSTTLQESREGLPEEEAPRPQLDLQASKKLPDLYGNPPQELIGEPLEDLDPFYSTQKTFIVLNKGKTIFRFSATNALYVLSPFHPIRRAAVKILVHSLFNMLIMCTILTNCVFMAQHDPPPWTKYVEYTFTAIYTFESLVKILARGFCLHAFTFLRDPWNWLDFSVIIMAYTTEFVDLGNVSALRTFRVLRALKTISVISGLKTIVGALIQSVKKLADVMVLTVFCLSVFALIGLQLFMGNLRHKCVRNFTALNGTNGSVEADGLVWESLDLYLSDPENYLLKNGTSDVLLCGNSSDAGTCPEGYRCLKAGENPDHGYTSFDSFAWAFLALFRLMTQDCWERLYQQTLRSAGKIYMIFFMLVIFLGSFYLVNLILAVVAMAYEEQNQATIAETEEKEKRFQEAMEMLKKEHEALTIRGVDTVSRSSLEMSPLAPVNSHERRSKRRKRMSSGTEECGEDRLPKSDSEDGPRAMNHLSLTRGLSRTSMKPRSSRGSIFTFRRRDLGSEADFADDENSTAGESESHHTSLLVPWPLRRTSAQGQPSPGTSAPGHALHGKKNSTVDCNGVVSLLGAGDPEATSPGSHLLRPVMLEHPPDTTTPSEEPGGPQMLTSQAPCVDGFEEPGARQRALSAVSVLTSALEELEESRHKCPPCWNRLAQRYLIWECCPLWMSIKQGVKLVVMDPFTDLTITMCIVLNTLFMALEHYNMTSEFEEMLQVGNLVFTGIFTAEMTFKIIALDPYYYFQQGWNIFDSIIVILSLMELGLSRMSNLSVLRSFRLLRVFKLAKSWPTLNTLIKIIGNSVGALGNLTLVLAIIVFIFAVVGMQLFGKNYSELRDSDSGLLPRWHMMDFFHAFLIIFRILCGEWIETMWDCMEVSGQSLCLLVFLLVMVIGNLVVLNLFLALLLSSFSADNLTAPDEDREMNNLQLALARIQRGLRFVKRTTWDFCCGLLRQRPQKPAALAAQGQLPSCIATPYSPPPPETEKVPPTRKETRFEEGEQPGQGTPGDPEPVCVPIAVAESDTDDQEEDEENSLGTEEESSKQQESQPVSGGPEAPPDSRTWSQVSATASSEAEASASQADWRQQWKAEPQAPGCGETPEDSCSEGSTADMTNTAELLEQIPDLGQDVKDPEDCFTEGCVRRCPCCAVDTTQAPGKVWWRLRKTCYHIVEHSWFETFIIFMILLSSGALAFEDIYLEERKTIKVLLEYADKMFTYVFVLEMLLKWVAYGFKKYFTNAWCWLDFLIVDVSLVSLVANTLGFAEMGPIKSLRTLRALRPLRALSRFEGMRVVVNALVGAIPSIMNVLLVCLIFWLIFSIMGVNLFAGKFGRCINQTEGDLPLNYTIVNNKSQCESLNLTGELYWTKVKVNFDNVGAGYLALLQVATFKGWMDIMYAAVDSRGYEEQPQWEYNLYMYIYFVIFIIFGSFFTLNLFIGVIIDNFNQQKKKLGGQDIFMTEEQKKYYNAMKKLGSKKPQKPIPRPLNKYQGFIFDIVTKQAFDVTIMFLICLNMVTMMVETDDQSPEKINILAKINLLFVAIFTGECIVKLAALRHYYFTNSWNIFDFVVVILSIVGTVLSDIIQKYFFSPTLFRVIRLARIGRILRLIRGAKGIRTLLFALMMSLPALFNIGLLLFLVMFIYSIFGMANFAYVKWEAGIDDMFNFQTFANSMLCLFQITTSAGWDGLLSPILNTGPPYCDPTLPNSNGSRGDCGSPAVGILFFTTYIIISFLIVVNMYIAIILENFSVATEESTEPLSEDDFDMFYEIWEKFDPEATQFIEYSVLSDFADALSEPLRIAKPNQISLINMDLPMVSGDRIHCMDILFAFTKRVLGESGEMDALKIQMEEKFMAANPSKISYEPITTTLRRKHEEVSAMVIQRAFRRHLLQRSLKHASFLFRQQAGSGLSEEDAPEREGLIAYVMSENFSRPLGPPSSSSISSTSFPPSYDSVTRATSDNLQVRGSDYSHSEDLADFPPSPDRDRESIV
RUN DESCRIPTION: Nav1.5 (peak current) ion channel profiling, Qube384 automated patch clamp (standard and extended protocol)
Format: cell-based
EXPERIMENTAL PARAMETERS: read-out: Ion Channel Extended Protocol IC50 (nM), Period 3rd; Nav1.5 (Peak), extended protocol, 3rd period
READOUT KIND: IC50

CHEMICAL STRING	TARGET OR TEST SYSTEM	RESULT
CCOc1cc(C)nc(N(CCOC)S(=O)(=O)c2ccc(NCc3c(F)cncc3F)nc2OC)n1	UniProt:Q14524	> 100000 nM

---

TARGET OR TEST SYSTEM: hERG (Homo sapiens, UniProt Q12809)
Sequence (Q12809 whole entry): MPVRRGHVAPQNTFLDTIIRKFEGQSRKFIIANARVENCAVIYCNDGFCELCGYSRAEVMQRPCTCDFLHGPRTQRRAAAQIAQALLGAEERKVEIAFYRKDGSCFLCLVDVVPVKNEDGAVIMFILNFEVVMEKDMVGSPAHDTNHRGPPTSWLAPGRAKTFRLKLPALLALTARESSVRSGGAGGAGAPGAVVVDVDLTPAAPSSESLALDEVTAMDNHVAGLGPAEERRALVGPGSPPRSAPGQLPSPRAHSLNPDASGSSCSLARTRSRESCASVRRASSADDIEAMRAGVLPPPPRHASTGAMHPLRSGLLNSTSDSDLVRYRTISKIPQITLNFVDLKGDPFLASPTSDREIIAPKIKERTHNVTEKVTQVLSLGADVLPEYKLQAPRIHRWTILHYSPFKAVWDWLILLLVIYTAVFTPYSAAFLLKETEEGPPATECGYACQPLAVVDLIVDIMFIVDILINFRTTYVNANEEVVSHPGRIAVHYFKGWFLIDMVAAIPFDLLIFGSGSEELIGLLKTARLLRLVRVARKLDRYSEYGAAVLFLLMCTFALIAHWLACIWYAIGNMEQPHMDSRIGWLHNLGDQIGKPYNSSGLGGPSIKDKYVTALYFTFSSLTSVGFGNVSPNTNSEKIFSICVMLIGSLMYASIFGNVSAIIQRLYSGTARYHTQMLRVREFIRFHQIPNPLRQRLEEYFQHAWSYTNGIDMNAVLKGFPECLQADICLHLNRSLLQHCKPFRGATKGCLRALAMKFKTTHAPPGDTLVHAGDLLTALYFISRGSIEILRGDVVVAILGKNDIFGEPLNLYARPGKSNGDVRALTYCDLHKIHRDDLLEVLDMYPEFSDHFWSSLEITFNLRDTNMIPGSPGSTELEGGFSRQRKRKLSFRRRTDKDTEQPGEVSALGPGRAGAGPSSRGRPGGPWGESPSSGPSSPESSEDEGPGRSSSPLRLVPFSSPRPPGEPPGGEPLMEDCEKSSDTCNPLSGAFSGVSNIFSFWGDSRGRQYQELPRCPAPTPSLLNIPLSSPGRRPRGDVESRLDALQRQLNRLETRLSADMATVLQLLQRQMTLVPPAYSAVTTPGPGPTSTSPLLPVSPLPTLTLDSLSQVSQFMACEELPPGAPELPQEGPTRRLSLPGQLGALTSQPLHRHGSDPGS
RUN DESCRIPTION: hERG ion channel profiling, Qube384 automated patch clamp (standard and extended protocol)
Assay type: cell-based
EXPERIMENTAL PARAMETERS: extended protocol, 2nd period, read-out: Ion Channel Extended Protocol IC50 (nM), Period 2nd
Description: 105 hERG, Nav1.5 and Cav1.2 Ion Channel Profiling 106 Ionic curr ents wer e evalu ated in the whole-cell con figuration using the Qube384 automated planar 107 patch clamp platform (Sophion Bioscience A/S, Ballerup, Denmark). QChip 384X plates, […] 123 at a rate of 0.05 Hz. Peak hERG current was measured during the ramp. […] 142 Patch clamp data were analyzed using Assay Software 6.4.72 (Sophion Bioscience A/S, Ballerup, […]

CHEMICAL STRING	IC50, nM
CCOc1cc(C)nc(N(CCOC)S(=O)(=O)c2ccc(NCc3c(F)cncc3F)nc2OC)n1	28000

---

TARGET OR TEST SYSTEM: UniProt:Q13936
RUN DESCRIPTION: cell-based
EXPERIMENTAL PARAMETERS: Ion Channel Extended Protocol IC50 (nM), Period 1st, Cav1.2, extended protocol, 1st period
READOUT KIND: IC50 (nM)

CHEMICAL STRING	UNITS TEXT	NUMBER
CCOc1cc(C)nc(N(CCOC)S(=O)(=O)c2ccc(NCc3c(F)cncc3F)nc2OC)n1	nM	21100
